# Tested on: Amaranthus retroflexus L. (pigweed, redroot)
# procedure.text: General post-emergent herbicidal activity, foliar application
# Format: in vivo
# cond: Amaranthus retroflexus, 336 h, 70 g ai/ha, foliar post-emergent, scored after 14 days; read-out: % Visual Growth Reduction AMARE
pest or weed control at 70 g/ha values, listed per item
Express it in %; write the number only.

>>> numeric_value("COC(=O)c1nc(C(F)F)c(Cl)c(N)c1Cl")
75
>>> numeric_value("COC(=O)c1nc(C(C)F)cc(N)c1Cl (stereo not shown)")
100
>>> numeric_value("COC(=O)c1nc(CCF)c(F)c(N)c1Cl")
90

Exercise: Which value of pest or weed control at 70 g/ha has been reported for Nc1c(F)c(CF)nc(C(=O)O)c1Cl in the records?
Key: 100

Exercise: // query: COC(=O)c1nc(C(F)F)cc(N)c1Cl
Key: 100

Exercise: Next compound: COC(=O)c1nc(C(F)(F)F)cc(N)c1Cl [Prior Art 1, reference compound]
Key: 80

* * *

# System: Euphorbia heterophylla L. (poinsettia, wild)
# procedure.text: General post-emergent herbicidal activity, foliar application
# Type: in vivo
# cond: Euphorbia heterophylla, 336 h, 140 g ai/ha, foliar post-emergent, scored after 14 days; read-out: % Visual Growth Reduction EPHHL
Consider the following molecules and their measured pest or weed control at 140 g/ha readings.
Unit % implied. Number only.

As a guide, the following entries are already answered.
>>> numeric_value("COC(=O)c1nc(C(F)F)cc(N)c1Cl [Compound F12]")
100
>>> numeric_value("COC(=O)c1nc(CCF)c(F)c(N)c1Cl [Compound F29]")
100

Exercise: Reported pest or weed control at 140 g/ha for C=C(F)c1nc(C(=O)OC)c(Cl)c(N)c1F [Compound F22] : what is it?
Key: 50

Exercise: Subsequent entry: CC(F)c1cc(N)c(Cl)c(C(=O)O)n1 (stereo not drawn) [Compound F24]
Key: 90

Exercise: Also Nc1c(Cl)c(C(=O)O)nc(C(F)F)c1Cl [Compound F13] , if possible.
Key: 100

Exercise: Try the molecule COC(=O)c1nc(C(C)CF)cc(N)c1Cl (stereo not drawn) [Compound F20]
Key: 95

* * *

# System: Echinochloa crus-galli (L.) Beauv. (barnyardgrass)
# procedure.text: General post-emergent herbicidal activity, foliar application
# Assay type: in vivo
# cond: Echinochloa crus-galli, 336 h; 280 g ai/ha, foliar post-emergent, scored after 14 days; read-out: % Visual Growth Reduction ECHCG
Quick reference: pest or weed control at 280 g/ha of the listed items.
Lab book: enter the figure in %, no units written.

Consider the reported pest or weed control at 280 g/ha for these molecules:
>>> numeric_value("COC(=O)c1nc(CCC(F)(F)F)c(Cl)c(N)c1Cl")
0
>>> numeric_value("COC(=O)c1nc(CF)c(F)c(N)c1Cl")
60
>>> numeric_value("Nc1c(F)c(C(F)F)nc(C(=O)O)c1Cl")
60
>>> numeric_value("COC(=O)c1nc(C(F)F)c(F)c(N)c1Cl")
10
>>> numeric_value("COC(=O)c1nc(C(F)F)c(Cl)c(N)c1Cl")
0
>>> numeric_value("CC(F)c1cc(N)c(Cl)c(C(=O)O)n1 (stereo not shown)")
90

API: the following record is the query input.
Exercise: Item under review: COC(=O)c1nc(CF)c(Cl)c(N)c1Cl . Reported pest or weed control at 280 g/ha?
Key: 0

* * *

The compounds listed here are annotated with their plant injury at 280 g/ha.
# System: Oryza sativa L. (rice)
# procedure.text: General post-emergent herbicidal activity, foliar application
# Assay type: in vivo
# cond: Oryza sativa, 336 h, 280 g ai/ha, scored after 14 days, read-out: % Visual Growth Reduction ORYSA
Form entry: value (%) — number only.

>>> numeric_value("Nc1c(F)c(C(F)F)nc(C(=O)O)c1Cl")
5

Exercise: Returns the measured plant injury at 280 g/ha for the input compound. Input: Nc1c(F)c(CF)nc(C(=O)O)c1Cl
Key: 30

Exercise: Can you check C=C(F)c1cc(N)c(Cl)c(C(=O)OC)n1 next?
Key: 0

Exercise: Field entry: COC(=O)c1nc(C(F)CF)cc(N)c1Cl (centres unmarked)
Key: 0

Exercise: Now try COC(=O)c1nc(C(F)F)cc(N)c1Cl .
Key: 8

* * *

# Tested on: Viola tricolor L. (pansy)
# procedure.text: General post-emergent herbicidal activity, foliar application
# Type: in vivo
# cond: Viola tricolor, 336 h, 280 g ai/ha, foliar post-emergent, scored after 14 days; read-out: % Visual Growth Reduction VIOTR
Response field label takes T when pest or weed control at 280 g/ha is strictly below 10% and F in all other cases.

As a guide, the following entries are already answered.
>>> class_assignment("COC(=O)c1nc(C(F)CF)cc(N)c1Cl (centres unmarked) [Compound F28]")
"F"
>>> class_assignment("CC(F)c1nc(C(=O)O)c(Cl)c(N)c1Cl (centres unmarked) [Compound F16]")
"T"
>>> class_assignment("Nc1c(Cl)c(CF)nc(C(=O)O)c1Cl [Compound F25]")
"T"
>>> class_assignment("COC(=O)c1nc(CCl)cc(N)c1Cl [Compound F35]")
"T"
>>> class_assignment("COC(=O)c1nc(C(F)F)cc(N)c1Cl [Compound F12]")
"F"

Exercise: I wonder whether COC(=O)c1nc(CF)c(F)c(N)c1Cl [Compound F14] has pest or weed control at 280 g/ha below 10%. Can you tell?
Key: F

Exercise: Another compound: COC(=O)c1nc(C(C)F)cc(N)c1Cl (centres unmarked) [Compound F19]
Key: F

* * *

pest or weed control at 70 g/ha for assorted molecules
# Tested on: Amaranthus retroflexus L. (pigweed, redroot)
# procedure.text: General post-emergent herbicidal activity, foliar application
# Type: in vivo
# cond: Amaranthus retroflexus, 336 h, 70 g ai/ha, foliar post-emergent, scored after 14 days; read-out: % Visual Growth Reduction AMARE
Enter the number, and then the unit.

As a guide, the following entries are already answered.
>>> result("COC(=O)c1nc(C(C)(C)F)cc(N)c1Cl [Compound F9]")
"100%"
>>> result("COC(=O)c1nc(CF)c(Cl)c(N)c1Cl [Compound F1]")
"60%"
>>> result("CC(F)c1nc(C(=O)O)c(Cl)c(N)c1F (stereo not shown) [Compound F30]")
"100%"

Exercise: Entry COC(=O)c1nc(CF)c(F)c(N)c1Cl [Compound F14] : reported pest or weed control at 70 g/ha = ?
Key: 80%
